Target: Elongin-B/Elongin-C/von Hippel-Lindau disease tumor suppressor (Homo sapiens, UniProt P40337+Q15370+Q15369)
Sequence (P40337 whole entry, looked up): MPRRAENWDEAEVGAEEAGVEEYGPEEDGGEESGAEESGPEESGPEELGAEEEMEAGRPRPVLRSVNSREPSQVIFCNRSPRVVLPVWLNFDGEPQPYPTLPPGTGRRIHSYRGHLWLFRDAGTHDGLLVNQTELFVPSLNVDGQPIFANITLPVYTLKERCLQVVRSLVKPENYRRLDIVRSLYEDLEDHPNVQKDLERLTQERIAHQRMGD
Sequence (Q15369 whole entry, looked up): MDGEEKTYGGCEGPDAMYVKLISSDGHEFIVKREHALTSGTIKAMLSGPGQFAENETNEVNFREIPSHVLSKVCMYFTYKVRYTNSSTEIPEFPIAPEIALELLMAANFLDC
Sequence (Q15370 whole entry, looked up): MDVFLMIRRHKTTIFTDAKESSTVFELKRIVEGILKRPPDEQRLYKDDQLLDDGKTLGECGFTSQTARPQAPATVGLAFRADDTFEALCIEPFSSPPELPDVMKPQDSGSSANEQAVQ
Test: Displacement of FAM-DEALAHyp-YIPD from 6xHis-tagged VHL (1 to 213)/elongins-B/elonginC (unknown origin) expressed in Escherichia coli BL21 after 1 min by fluorescence polarization assay
pIC50: −log10 of the molar value.
MEASURED_PARAMETER: pIC50

> print(dat)
                                  structure  measured.parameter  recorded.result
1  Cc1cc(CC(=O)N2C[C@H](O)C[C@H]2C(=O)NCc2cccc(Cl)c2)on1               pIC50             3.93

Each recorded value in this set is attributed to BindingDB's records for doi:10.1016/j.bmcl.2014.03.095.
